- assay procedure: Plasma and brain exposure in male CD-1 mice (Brain PK)
- Type: in vivo
- experimental conditions: CD-1, mouse, po, brain, p.o. 25 mg/kg free base
reported property: Cmax

Completed entries (count: 2):
{"compound": "CN(C)C/C=C/C(=O)Nc1cc2c(Nc3ccc(F)c(Cl)c3)ncnc2cc1O[C@H]1CCOC1 [Afatinib, reference compound]", "Cmax": "83.3 ng/mL"}
{"compound": "O=C(/C=C/CN1CCCCC1)Nc1cc2c(Nc3ccc(F)c(Cl)c3F)ncnc2cc1OCCOC(F)F.O=C(O)/C=C\\C(=O)O.O=C(O)/C=C\\C(=O)O [Example I-10-MA]", "Cmax": "3830 ng/mL"}

# input for lookup
For CN(C)C/C=C/C(=O)Nc1cc2c(Nc3ccc(F)c(Cl)c3F)ncnc2cc1OCCOC(F)F.O=C(O)/C=C\C(=O)O.O=C(O)/C=C\C(=O)O [Example I-9-MA] , write its Cmax.
651 ng/mL

---

Consider the following molecules and their measured MRT last readings.
- assay procedure: Plasma and brain exposure in male CD-1 mice (Brain PK)
- Format: in vivo
- experimental conditions: CD-1, mouse, iv, brain, i.v. 1 mg/kg free base, read-out: MRT0-tlast
Your answer is read as h, so omit the unit and give the number.

{"molecule": "CN(C)C/C=C/C(=O)Nc1cc2c(Nc3ccc(F)c(Cl)c3F)ncnc2cc1OCCOC(F)F.O=C(O)/C=C\\C(=O)O.O=C(O)/C=C\\C(=O)O [Example I-9-MA]", "MRT last, h": 6.6}
{"molecule": "O=C(/C=C/CN1CCCCC1)Nc1cc2c(Nc3ccc(F)c(Cl)c3F)ncnc2cc1OCCOC(F)F.O=C(O)/C=C\\C(=O)O.O=C(O)/C=C\\C(=O)O [Example I-10-MA]", "MRT last, h": 2.99}

# input for lookup
For CN(C)C/C=C/C(=O)Nc1cc2c(Nc3ccc(F)c(Cl)c3)ncnc2cc1O[C@H]1CCOC1 [Afatinib, reference compound] , write its MRT last.
7.01

---

- assay procedure: Plasma protein binding (equilibrium dialysis)
- Format: in vitro ADME
- experimental conditions: human, pH 7.4, dialysis 6 hours, read-out: Human Plasma % Bound (converted)
reported property: fraction unbound at 6 h, 1 μM
When you answer, write just the number.

{"molecule": "CN(C)C/C=C/C(=O)Nc1cc2c(Nc3cccc(Cl)c3F)ncnc2cc1OCCOC(F)F.O=C(O)/C=C\\C(=O)O", "fraction unbound at 6 h, 1 μM": 0.117}

# input for lookup
For CN(C)C/C=C/C(=O)Nc1cc2c(Nc3ccc(F)c(Cl)c3)ncnc2cc1O[C@H]1CCOC1 [Afatinib, reference compound] , write its fraction unbound at 6 h, 1 μM.
0.08

---

- assay procedure: Log P determination (HPLC with reference substances)
- Format: physicochemical
- experimental conditions: HPLC retention against reference substances of known log P
Consider the following compounds and their measured chromatographic logP readings.
When you answer, write just the number.

{"compound": "CN(C)C/C=C/C(=O)Nc1cc2c(Nc3ccc(F)c(Cl)c3)ncnc2cc1O[C@H]1CCOC1 [Afatinib, reference compound]", "chromatographic logP": 4.26}

For CN(C)C/C=C/C(=O)Nc1cc2c(Nc3cccc(Cl)c3F)ncnc2cc1OCCOC(F)F.O=C(O)/C=C\C(=O)O , write its chromatographic logP.
3.57

---

Consider the following molecules and their measured microsomal CLint at 1 μM readings.
- assay procedure: Microsomal stability
- Assay type: in vitro ADME, mouse (CD-1, male)
- experimental conditions: male, CD-1; Mouse liver microsomes with NADPH
Your answer is read as µL/min/mg, so omit the unit and give the number.

{"cpd smiles": "CN(C)C/C=C/C(=O)Nc1cc2c(Nc3ccc(F)c(Cl)c3F)ncnc2cc1OCCOC(F)F.O=C(O)/C=C\\C(=O)O.O=C(O)/C=C\\C(=O)O", "unit": "µL/min/mg", "microsomal CLint at 1 μM": 39.4}

For O=C(/C=C/CN1CCCCC1)Nc1cc2c(Nc3ccc(F)c(Cl)c3F)ncnc2cc1OCCOC(F)F.O=C(O)/C=C\C(=O)O.O=C(O)/C=C\C(=O)O , write its microsomal CLint at 1 μM.
24

---

- assay procedure: Plasma and brain exposure in male CD-1 mice (Brain PK)
- Assay type: in vivo
- experimental conditions: CD-1, mouse, po, brain, p.o. 25 mg/kg free base, read-out: MRT0-tlast
reported property: MRT last (h)
Your answer is read as h, so omit the unit and give the number.

Completed entries (count: 2):
{"compound": "O=C(/C=C/CN1CCCCC1)Nc1cc2c(Nc3ccc(F)c(Cl)c3F)ncnc2cc1OCCOC(F)F.O=C(O)/C=C\\C(=O)O.O=C(O)/C=C\\C(=O)O [Example I-10-MA]", "MRT last, h": 3.68}
{"compound": "CN(C)C/C=C/C(=O)Nc1cc2c(Nc3ccc(F)c(Cl)c3)ncnc2cc1O[C@H]1CCOC1 [Afatinib, reference compound]", "MRT last, h": 8.64}

# input for lookup
For CN(C)C/C=C/C(=O)Nc1cc2c(Nc3ccc(F)c(Cl)c3F)ncnc2cc1OCCOC(F)F.O=C(O)/C=C\C(=O)O.O=C(O)/C=C\C(=O)O [Example I-9-MA] , write its MRT last.
6.78

---

- assay target: CYP 2C19 (Homo sapiens, UniProt P33261)
- Sequence (P33261 whole entry): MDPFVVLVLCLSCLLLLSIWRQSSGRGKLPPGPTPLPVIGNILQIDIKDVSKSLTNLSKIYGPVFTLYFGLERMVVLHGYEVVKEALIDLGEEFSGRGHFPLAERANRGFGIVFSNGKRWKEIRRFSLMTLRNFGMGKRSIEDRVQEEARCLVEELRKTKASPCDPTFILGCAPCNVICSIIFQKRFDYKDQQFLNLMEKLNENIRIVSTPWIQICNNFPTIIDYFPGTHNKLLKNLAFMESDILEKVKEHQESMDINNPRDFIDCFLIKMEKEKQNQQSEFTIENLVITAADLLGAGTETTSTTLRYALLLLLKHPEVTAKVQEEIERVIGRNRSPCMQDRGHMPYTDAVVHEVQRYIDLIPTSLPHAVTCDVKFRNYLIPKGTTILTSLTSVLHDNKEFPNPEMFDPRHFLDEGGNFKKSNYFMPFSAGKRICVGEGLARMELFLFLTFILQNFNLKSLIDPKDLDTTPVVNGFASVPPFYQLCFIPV
- assay procedure: CYP450 inhibition
- Type: in vitro ADME
reported property: pIC50
# pIC50 = -log10(concentration in molar units)

{"compound": "CN(C)C/C=C/C(=O)Nc1cc2c(Nc3ccc(F)c(Cl)c3)ncnc2cc1O[C@H]1CCOC1 [Afatinib, reference compound]", "pIC50": 4.32}

# assay system CYP 2C19 (Homo sapiens, UniProt P33261): give pIC50 of CN(C)C/C=C/C(=O)Nc1cc2c(Nc3cccc(Cl)c3F)ncnc2cc1OCCOC(F)F.O=C(O)/C=C\C(=O)O
4.54

---

- assay target: CYP 3A4 (Homo sapiens)
- Sequence (P08684 whole entry): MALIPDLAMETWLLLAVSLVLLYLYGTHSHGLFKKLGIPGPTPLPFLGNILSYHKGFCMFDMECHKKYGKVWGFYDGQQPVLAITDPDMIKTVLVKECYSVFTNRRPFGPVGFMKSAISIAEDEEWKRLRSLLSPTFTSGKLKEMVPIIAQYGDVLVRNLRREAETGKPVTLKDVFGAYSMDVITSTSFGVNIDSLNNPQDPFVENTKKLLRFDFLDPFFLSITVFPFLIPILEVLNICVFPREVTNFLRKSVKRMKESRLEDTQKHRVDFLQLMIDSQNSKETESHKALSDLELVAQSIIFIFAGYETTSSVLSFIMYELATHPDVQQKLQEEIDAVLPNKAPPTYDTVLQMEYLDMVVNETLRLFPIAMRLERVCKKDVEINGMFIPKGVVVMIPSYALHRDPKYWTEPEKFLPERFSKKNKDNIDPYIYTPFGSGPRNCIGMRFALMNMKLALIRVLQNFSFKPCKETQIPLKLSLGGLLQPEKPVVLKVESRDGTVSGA
reported property: pIC50
# pIC50 = -log10(concentration in molar units)

# assay system CYP 3A4 (Homo sapiens): give pIC50 of CN(C)C/C=C/C(=O)Nc1cc2c(Nc3cccc(Cl)c3F)ncnc2cc1OCCOC(F)F.O=C(O)/C=C\C(=O)O [Example I-5-MA]
4.38

---

- assay procedure: Plasma protein binding (equilibrium dialysis)
- Type: in vitro ADME
- experimental conditions: rat, pH 7.4, dialysis 6 hours, read-out: Rat Plasma % Bound (converted)
- Procedure: Prepare a basic solution by dissolving 14.2 g/L Na2HPO4 and 8.77 g/L NaCl in deionized water. Store at 4° C. for up to 7 days. Prepare an acidic solution by dissolving 15.6 g/L NaH2PO4.2H2O and 8.77 g/L NaCl in deionized water. Store at 4° C. for up to 7 days. Titrate the basic solution with the acidic solution to pH 7.4. Store at 4° C. for up to 7 days. Check pH on the day of experiment and adjust if outside specification of 7.4±0.1. […]
reported property: fraction unbound at 6 h, 1 μM
When you answer, write just the number.

{"compound": "CN(C)C/C=C/C(=O)Nc1cc2c(Nc3ccc(F)c(Cl)c3)ncnc2cc1O[C@H]1CCOC1 [Afatinib, reference compound]", "fraction unbound at 6 h, 1 μM": 0.0896}

# input for lookup
For CN(C)C/C=C/C(=O)Nc1cc2c(Nc3cccc(Cl)c3F)ncnc2cc1OCCOC(F)F.O=C(O)/C=C\C(=O)O , write its fraction unbound at 6 h, 1 μM.
0.0771

---

- assay procedure: in vitro
- experimental conditions: human, Caco-2, pH 7.4
- Method: At this stage of growth, cell monolayers were fully polarized and differentiated. The permeability assay buffer was Hanks Balanced Salt Solution containing 10 mM HEPES and 15 mM glucose at a pH of 7.4. The dosing buffer contained 5 μM metoprolol (positive control), 5 μM atenolol (negative control) and 100 μM lucifer yellow. The buffer in the receiver chamber also contained 1% bovine serum albumin (BSA). The dosing solution concentration was 5 μM in the assay buffer. […]
Consider the following compounds and their measured Papp B→A at 120 min, 5 µM readings.
Your answer is read as ×10⁻⁶ cm/s, so omit the unit and give the number.

Completed entries (count: 4):
{"compound": "CN(C)C/C=C/C(=O)Nc1cc2c(Nc3ccc(F)c(Cl)c3)ncnc2cc1O[C@H]1CCOC1 [Afatinib, reference compound]", "Papp B→A at 120 min, 5 µM, ×10⁻⁶ cm/s": 16}
{"compound": "CN(C)C/C=C/C(=O)Nc1cc2c(Nc3cccc(Cl)c3F)ncnc2cc1OCCOC(F)F.O=C(O)/C=C\\C(=O)O [Example I-5-MA]", "Papp B→A at 120 min, 5 µM, ×10⁻⁶ cm/s": 6.52}
{"compound": "C[C@H]1O[C@@H](O[C@H]2[C@@H](O)C[C@H](O[C@H]3[C@@H](O)C[C@H](O[C@H]4CC[C@@]5(C)[C@H](CC[C@@H]6[C@@H]5C[C@@H](O)[C@]5(C)[C@@H](C7=CC(=O)OC7)CC[C@]65O)C4)O[C@@H]3C)O[C@@H]2C)C[C@H](O)[C@@H]1O [Digoxin]", "Papp B→A at 120 min, 5 µM, ×10⁻⁶ cm/s": 22.7}
{"compound": "COc1cc2nc(N3CCN(C(=O)c4ccco4)CC3)nc(N)c2cc1OC [Prazosin]", "Papp B→A at 120 min, 5 µM, ×10⁻⁶ cm/s": 34.7}

# input for lookup
For CC(C)NCC(O)COc1cccc2ccccc12 (centres unmarked) [Propranolol] , write its Papp B→A at 120 min, 5 µM.
15.8
